System: proteases secreted by S. aureus ATCC 25923
Experiment: in vitro
Details: S. aureus ATCC 25923 culture supernatant, pH 8
Method: The stabilities of the peptides toward proteases secreted by E. coli ATCC 25922, P. aeruginosa ATCC 27853, A. baumannii ATCC 19606, S. aureus ATCC 25923, and C. albicans ATCC 10231 were also examined. Microbial supernatants were prepared by resuspending single colonies of each strain in 20 mL of an appropriate culture medium followed by incubation at 37°C overnight. […] The samples were incubated at 37°C for 24 h in a water bath and then analyzed by RP-HPLC as described above.
Where a SMILES comes first, the peptide text is derived from it. [ ]: non-standard residue; d: D form. hArg = N=C(N)NCCCC[C@H](N)C(=O)O; Dab = NCC[C@H](N)C(=O)O; Dap = NC[C@H](N)C(=O)O
value.type: remaining at 24 h, 0.5 mg/mL (%)
Give a bare numeral; the unit % is implied.

Any idea what remaining at 24 h, 0.5 mg/mL came out for CC(C)C[C@H](NC(=O)[C@H](Cc1ccc(O)cc1)NC(=O)[C@H](CCN)NC(=O)[C@H](CC(C)C)NC(=O)[C@H](CC(C)C)NC(=O)[C@H](CN)NC(=O)[C@H](CN)NC(=O)[C@H](Cc1ccccc1)NC(=O)[C@H](CC(C)C)NC(=O)[C@H](CCCCNC(=N)N)NC(=O)[C@@H](N)CN)C(=O)N[C@@H](CCCCNC(=N)N)C(=O)N[C@@H](CCN)C(=O)N[C@@H](Cc1ccccc1)C(N)=O [UP14] (H-[Dap][hArg]LF[Dap][Dap]LL[Dab]YL[hArg][Dab]F-NH2) on proteases secreted by S. aureus ATCC 25923?
57.3

What remaining at 24 h, 0.5 mg/mL appears in the records for this compound with proteases secreted by S. aureus ATCC 25923? CC(C)C[C@H](NC(=O)[C@H](Cc1ccc(O)cc1)NC(=O)[C@H](CCN)NC(=O)[C@H](CC(C)C)NC(=O)[C@H](CC(C)C)NC(=O)[C@H](CCN)NC(=O)[C@H](CCN)NC(=O)[C@H](Cc1ccccc1)NC(=O)[C@H](CC(C)C)NC(=O)[C@H](CCCCNC(=N)N)NC(=O)[C@@H](N)CCN)C(=O)N[C@@H](CCCNC(=N)N)C(=O)N[C@@H](CCN)C(=O)N[C@@H](Cc1ccccc1)C(N)=O [UP12] (H-[Dab][hArg]LF[Dab][Dab]LL[Dab]YLR[Dab]F-NH2)
69.5

====

system: human erythrocytes; experiment: Hemolytic activity assay; assay type: cell-based; details: 64 μM; human RBC in PB, 37°C, 1 h; OD420; total lysis control 0.1% SDS; three technical replicates
Where a SMILES comes first, the peptide text is derived from it. [ ]: non-standard residue; d: D form.
value.type: Hemolysis rate (%)
Reply with the number and its unit after it.

Need Hemolysis rate (%), item CC(C)C[C@H](NC(=O)[C@H](CC(C)C)NC(=O)[C@@H](CCCCN)NC(=O)[C@@H](CCCCN)NC(=O)[C@H](Cc1ccccc1)NC(=O)[C@H](CC(C)C)NC(=O)[C@@H](CCCNC(=N)N)NC(=O)[C@H](N)CCCCN)C(=O)N[C@H](CCCCN)C(=O)N[C@@H](Cc1ccc(O)cc1)C(=O)N[C@@H](CC(C)C)C(=O)N[C@H](CCCNC(=N)N)C(=O)N[C@H](CCCCN)C(=O)N[C@@H](Cc1ccccc1)C(N)=O [DP06] (H-[dK][dR]LF[dK][dK]LL[dK]YL[dR][dK]F-NH2)
37.14 ± 2.73%

====

system: human plasma proteases; test: in vitro
Where a SMILES comes first, the peptide text is derived from it. [ ]: non-standard residue; d: D form.
value.type: remaining at 8 h, 0.1 mg/mL

Please give the measured remaining at 8 h, 0.1 mg/mL for this compound: CC(C)C[C@H](NC(=O)[C@H](CC(C)C)NC(=O)[C@@H](CCCCN)NC(=O)[C@@H](CCCCN)NC(=O)[C@H](Cc1ccccc1)NC(=O)[C@H](CC(C)C)NC(=O)[C@@H](CCCNC(=N)N)NC(=O)[C@H](N)CCCCN)C(=O)N[C@H](CCCCN)C(=O)N[C@@H](Cc1ccc(O)cc1)C(=O)N[C@@H](CC(C)C)C(=O)N[C@H](CCCNC(=N)N)C(=O)N[C@H](CCCCN)C(=O)N[C@@H](Cc1ccccc1)C(N)=O [DP06] (H-[dK][dR]LF[dK][dK]LL[dK]YL[dR][dK]F-NH2)
> 90%

====

tested on: human plasma proteases; assay: in vitro
Where a SMILES comes first, the peptide text is derived from it. [ ]: non-standard residue; d: D form. 2Thi = N[C@@H](Cc1cccs1)C(=O)O
Consider the following molecules; for each one, report its metabolised at 2 h, 0.1 mg/mL.

Request body: readout metabolised at 2 h, 0.1 mg/mL, system human plasma proteases, query CC(C)C[C@H](NC(=O)[C@H](Cc1ccc(O)cc1)NC(=O)[C@H](CCCCN)NC(=O)[C@H](CC(C)C)NC(=O)[C@H](CC(C)C)NC(=O)[C@@H](CCCCN)NC(=O)[C@@H](CCCCN)NC(=O)[C@H](Cc1ccccc1)NC(=O)[C@H](CC(C)C)NC(=O)[C@@H](CCCNC(=N)N)NC(=O)[C@H](N)CCCCN)C(=O)N[C@@H](CCCNC(=N)N)C(=O)N[C@H](CCCCN)C(=O)N[C@@H](Cc1ccccc1)C(N)=O [DP05] (H-[dK][dR]LF[dK][dK]LLKYLR[dK]F-NH2) . Return the value.
> 40%

I'm curious: which metabolised at 2 h, 0.1 mg/mL was measured for CC(C)C[C@H](NC(=O)[C@H](CCCCN)NC(=O)[C@H](CCCCN)NC(=O)[C@H](Cc1ccccc1)NC(=O)[C@H](CC(C)C)NC(=O)[C@H](CCCNC(=N)N)NC(=O)[C@@H](N)CCCCN)C(=O)N[C@@H](CC(C)C)C(=O)N[C@@H](CCCCN)C(=O)N[C@@H](Cc1ccc(O)cc1)C(=O)N[C@@H](CC(C)C)C(=O)N[C@@H](CCCNC(=N)N)C(=O)N[C@H](CCCCN)C(=O)N[C@@H](Cc1ccccc1)C(N)=O [DP03] (H-KRLFKKLLKYLR[dK]F-NH2) tested on human plasma proteases?
> 40%

Lookup: metabolised at 2 h, 0.1 mg/mL / human plasma proteases / CC(C)C[C@H](NC(=O)[C@H](Cc1ccc(O)cc1)NC(=O)[C@H](CCCCN)NC(=O)[C@H](CC(C)C)NC(=O)[C@H](CC(C)C)NC(=O)[C@H](CCCCN)NC(=O)[C@H](CCCCN)NC(=O)[C@H](Cc1cccs1)NC(=O)[C@H](CC(C)C)NC(=O)[C@H](CCCNC(=N)N)NC(=O)[C@@H](N)CCCCN)C(=O)N[C@@H](CCCNC(=N)N)C(=O)N[C@@H](CCCCN)C(=O)N[C@@H](Cc1cccs1)C(N)=O [UP07] (H-KRL[2Thi]KKLLKYLRK[2Thi]-NH2)
> 40%

====

Provide the recorded remaining at 24 h, 0.5 mg/mL for the entries that follow.
system: proteases secreted by S. aureus ATCC 25923; assay: in vitro; details: Staphylococcus aureus, S. aureus ATCC 25923 culture supernatant, pH 8
Where a SMILES comes first, the peptide text is derived from it. [ ]: non-standard residue; d: D form. hArg = N=C(N)NCCCC[C@H](N)C(=O)O; 2Thi = N[C@@H](Cc1cccs1)C(=O)O; Dab = NCC[C@H](N)C(=O)O; Dap = NC[C@H](N)C(=O)O
State the result as a value with its unit after it.

So what does the record say about remaining at 24 h, 0.5 mg/mL for CC(C)C[C@H](NC(=O)[C@H](Cc1ccc(O)cc1)NC(=O)[C@H](CCN)NC(=O)[C@H](CC(C)C)NC(=O)[C@H](CC(C)C)NC(=O)[C@H](CCN)NC(=O)[C@H](CN)NC(=O)[C@H](Cc1cccs1)NC(=O)[C@H](CC(C)C)NC(=O)[C@H](CCCNC(=N)N)NC(=O)[C@@H](N)CCN)C(=O)N[C@@H](CCCCNC(=N)N)C(=O)N[C@@H](CCN)C(=O)N[C@@H](Cc1ccccc1)C(N)=O [UP15] (H-[Dab]RL[2Thi][Dap][Dab]LL[Dab]YL[hArg][Dab]F-NH2) ?
54.6%

Data request, read-out remaining at 24 h, 0.5 mg/mL, for CC(C)C[C@H](NC(=O)[C@H](Cc1ccc(O)cc1)NC(=O)[C@H](CCCCN)NC(=O)[C@H](CC(C)C)NC(=O)[C@H](CC(C)C)NC(=O)[C@@H](CCCCN)NC(=O)[C@@H](CCCCN)NC(=O)[C@H](Cc1ccccc1)NC(=O)[C@H](CC(C)C)NC(=O)[C@@H](CCCNC(=N)N)NC(=O)[C@H](N)CCCCN)C(=O)N[C@@H](CCCNC(=N)N)C(=O)N[C@H](CCCCN)C(=O)N[C@@H](Cc1ccccc1)C(N)=O [DP05] (H-[dK][dR]LF[dK][dK]LLKYLR[dK]F-NH2)
66.7%

Which remaining at 24 h, 0.5 mg/mL reading was recorded for the compound CC(C)C[C@H](NC(=O)[C@H](Cc1ccc(O)cc1)NC(=O)[C@H](CCCCN)NC(=O)[C@H](CC(C)C)NC(=O)[C@H](CC(C)C)NC(=O)[C@@H](CCCCN)NC(=O)[C@@H](CCCCN)NC(=O)[C@H](Cc1ccccc1)NC(=O)[C@H](CC(C)C)NC(=O)[C@H](CCCNC(=N)N)NC(=O)[C@@H](N)CCCCN)C(=O)N[C@@H](CCCNC(=N)N)C(=O)N[C@H](CCCCN)C(=O)N[C@@H](Cc1ccccc1)C(N)=O [DP04] (H-KRLF[dK][dK]LLKYLR[dK]F-NH2) ?
63.7%

What does the data say about its remaining at 24 h, 0.5 mg/mL? Entry: CC(C)C[C@H](NC(=O)[C@H](Cc1ccc(O)cc1)NC(=O)[C@H](CCN)NC(=O)[C@H](CC(C)C)NC(=O)[C@H](CC(C)C)NC(=O)[C@H](CN)NC(=O)[C@H](CN)NC(=O)[C@H](Cc1ccccc1)NC(=O)[C@H](CC(C)C)NC(=O)[C@H](CCCCNC(=N)N)NC(=O)[C@@H](N)CN)C(=O)N[C@@H](CCCCNC(=N)N)C(=O)N[C@@H](CCN)C(=O)N[C@@H](Cc1cccs1)C(N)=O [UP11] (H-[Dap][hArg]LF[Dap][Dap]LL[Dab]YL[hArg][Dab][2Thi]-NH2)
35.7%

Item CC(C)C[C@H](NC(=O)[C@H](Cc1ccc(O)cc1)NC(=O)[C@H](CCN)NC(=O)[C@H](CC(C)C)NC(=O)[C@H](CC(C)C)NC(=O)[C@H](CCN)NC(=O)[C@H](CCN)NC(=O)[C@H](Cc1ccccc1)NC(=O)[C@H](CC(C)C)NC(=O)[C@H](CCCCNC(=N)N)NC(=O)[C@@H](N)CCN)C(=O)N[C@@H](CCCCNC(=N)N)C(=O)N[C@@H](CCN)C(=O)N[C@@H](Cc1ccccc1)C(N)=O [UP13] (H-[Dab][hArg]LF[Dab][Dab]LL[Dab]YL[hArg][Dab]F-NH2) has what recorded remaining at 24 h, 0.5 mg/mL?
78.5%
